Target: His-tagged canine IL-31 (interleukin 31) recombinant protein (canine)
Assay: cell-based or functional assay
measurement.name: pSTAT IC50 (µg/mL)
Lab book: enter the figure in µg/mL, no units written.

binder: 7475-H2K2-canIgGB (antibody, V domains shown) VH: EVQLVESGGDLVKPGGSLRLSCVASGFTFSSYAMSWIRQAPGKGLQWVAYISNGGDYIFYADTVKGRFTISRDNAKNTLYLQMNSLRAEDTAVYYCTRRGHYNTSSYWYFDVWGQGTLVTVSS VL: EIVMTQSPASLSLSQEEKVTITCKASENVGTYVSWYQQKPGQAPKLLIYGASNRYTGVPSRFSGSGSATDFTLTISSVEPEDVAVYYCGQSYSYPPTFGAGTKVELKR
result.units: µg/mL
pSTAT IC50 (µg/mL): 7.1
//
binder: 6465-mHvKv-canIgGB (antibody, V domains shown) VH: EVQLQQSGAELVRPGASVRLSCKASGYSFTNYYLYWVKQRPGQGLEWIGELNPRNGGTNLNAKFKTKATLTVDKSSNTAYMRLSSLTSEDSAVYYCTRGGTTVVVRDVMDFWGQGTSVTVSS VL: DIELTQSPASLAVSLGQRATISCRASESVDSYGNSFMHWYQQKPGQPPKLLIYRASNLESGIPARFSGSGSRTDFTLTINPVEADDVATYYCQQSNEDPYTFGGGTKLEIKR
result.units: µg/mL
pSTAT IC50 (µg/mL): 7.1

I would be grateful if you could share the reported pSTAT IC50 (µg/mL) for 6465-H1K2-canIgGB (antibody, V domains shown) VH: EVQLVESGGDLVKPGGSLRLSCVASGYSFTNYYLYWVRQAPGKGLEWVGELNPRNGGTNLNAKFKTRFTISVDKAKNMAYLQMNSLRAEDTAVYYCTRGGTTVVVRDVMDFWGQGTLVTVSS VL: DIVLTQTPLSLSVSPGEPASISCRASESVDSYGNSFMHWYRQKPGQSPQLLIYRASNLESGVPDRFSGSGSRTDFTLRISRVEADDAGVYYCQQSNEDPYTFGQGTKLEIKR .
7.9
